measured-on: human orexin-2 receptor (Homo sapiens (Human))
experiment-notes: Human orexin 2 receptor radioligand binding ([3H]-EMPA competition)
experimental-parameters: HEK293 cells stably expressing human orexin-2 receptor; [3H]-EMPA 5 nM final; apparent Ki=IC50/(1+C/Kd), Kd=2 nM; read-out: OR 2 Ki
readout: log10 of Ki (log10 of the value in nM)
Reminder: these figures are log10 of reported Ki, in nM before transformation.

O=C(O)c1cnc(N2CC3CN(C(=O)c4c(F)cccc4-n4nccn4)CC3C2)nc1C(F)(F)F (centres unmarked) | 4.00
COc1cccc(C(=O)N2CC3CN(c4nc(C)cc(C)n4)CC3C2)c1OC (centres unmarked) | 3.70
O=C(c1ccccc1-c1cccs1)N1CC2CN(c3cnc4ccccc4n3)CC2C1 (centres unmarked) | 1.38
Cc1ccc2ccccc2c1C(=O)N1CC2CN(c3nccc(-c4ccccc4)n3)CC2C1 (centres unmarked) | 2.04
Cc1cc(C)nc(N2CC3CN(C(=O)c4cccc5cccc(-n6nccn6)c45)CC3C2)n1 (centres unmarked) | 2.05
Cc1cc(C)nc(N2CC3CN(C(=O)c4c(C)ccc5ccccc45)CC3C2)n1 (centres unmarked) | 1.58
CCOc1ccccc1C(=O)N1CC2CN(c3nccc(OC)n3)CC2C1 (centres unmarked) | 2.89

Request: For O=C(c1ccccc1-c1ccccc1)N1CC2CN(c3nccc(-c4cccs4)n3)CC2C1 (centres unmarked) , what is its reported log10 of Ki?
Response: 2.71

###

measured-on: human orexin-2 receptor (Homo sapiens (Human))
experiment-notes: Human orexin 2 receptor radioligand binding ([3H]-EMPA competition)
experimental-parameters: HEK293 cells stably expressing human orexin-2 receptor; [3H]-EMPA 5 nM final; apparent Ki=IC50/(1+C/Kd), Kd=2 nM; read-out: OR 2 Ki
Listed next: entries and their corresponding Ki.
Write it as a number; the unit µM goes unstated.

Worked examples, 6 compounds total:
Cc1cncc(N2CC3CN(C(=O)c4ccccc4-n4nccn4)CC3C2)n1 (centres unmarked) | 0.044
Cc1cc(C)nc(N2CC3CN(C(=O)c4ccccc4-c4ccccn4)CC3C2)n1 (centres unmarked) | 0.017
COc1ccccc1S(=O)(=O)N1CC2CN(c3ccc(C(F)(F)F)cn3)CC2C1 (centres unmarked) | 4.4
Cc1cc(C)nc(N2CC3CN(C(=O)c4cccc(C)c4-n4ccnn4)CC3C2)n1 (centres unmarked) | 10
COc1ccc(C(=O)N2CC3CN(c4nc(C)c(F)c(C)n4)CC3C2)c(-n2nccn2)c1 (centres unmarked) | 0.009
O=C(c1ccccc1-c1ccccc1)N1CC2CN(c3nc4ccccc4o3)CC2C1 (centres unmarked) | 1.04

Request: Consider the compound shown here: CCc1c(C)nc(N2CC3CN(C(=O)c4ncccc4-n4nccn4)CC3C2)nc1C (centres unmarked) What is its recorded Ki?
Response: 0.042

Request: If you can, please state the reported Ki value of COc1ccccc1C(=O)N1CC2CN(c3nc(C)cc(C)n3)CC2C1 (centres unmarked) .
Response: 1.37

###

measured-on: human orexin-2 receptor (Homo sapiens (Human), UniProt O43614)
Sequence (O43614 whole entry): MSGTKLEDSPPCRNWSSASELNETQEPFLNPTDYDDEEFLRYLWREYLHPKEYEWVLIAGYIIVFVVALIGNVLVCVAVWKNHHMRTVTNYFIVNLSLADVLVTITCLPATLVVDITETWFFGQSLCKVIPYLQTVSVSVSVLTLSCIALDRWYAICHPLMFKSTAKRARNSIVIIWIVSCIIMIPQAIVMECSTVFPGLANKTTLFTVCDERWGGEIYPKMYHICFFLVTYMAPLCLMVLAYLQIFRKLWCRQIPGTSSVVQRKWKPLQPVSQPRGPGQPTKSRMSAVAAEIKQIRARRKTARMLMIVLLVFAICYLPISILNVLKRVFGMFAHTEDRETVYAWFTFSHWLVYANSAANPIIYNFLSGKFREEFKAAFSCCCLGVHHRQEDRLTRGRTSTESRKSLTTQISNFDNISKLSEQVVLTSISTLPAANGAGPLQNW
experiment-notes: Human orexin 2 receptor radioligand binding ([3H]-EMPA competition)
experimental-parameters: HEK293 cells stably expressing human orexin-2 receptor; [3H]-EMPA 5 nM final; apparent Ki=IC50/(1+C/Kd), Kd=2 nM; read-out: OR 2 Ki
pKi: −log10 of the molar value.
Kind request: treat 7 as inclusive, so pKi at 7 or higher is y, anything lower is n.

Cc1cc(C)nc(N2CC3CN(C(=O)c4cc(F)ccc4-c4ncco4)CC3C2)n1 (centres unmarked) [Example 404] | y
COc1cc(OC)nc(N2CC3CN(C(=O)c4c(F)cccc4-c4ncccn4)CC3C2)n1 (centres unmarked) [Example 68] | y
Cc1cc(C)nc(N2CC3CN(C(=O)c4cc(F)ccc4C(F)(F)F)CC3C2)n1 (centres unmarked) [Example 221] | n
Cc1cc(C)nc(N2CC3CN(C(=O)c4cccc(F)c4-c4ncccc4C)CC3C2)n1 (centres unmarked) [Example 371] | n
N#Cc1ccccc1C(=O)N1CC2CN(c3cnc4ccccc4n3)CC2C1 (centres unmarked) [Example 26] | n

Request: Please tell me: is the compound CN(C)c1nc(N2CC3CN(C(=O)c4cc(F)ccc4-c4ncccn4)CC3C2)cc(C(F)(F)F)n1 (centres unmarked) [Example 109] at or over 7 in terms of pKi?
Response: y

Request: // inclusive: pKi at least 7? input: COc1cc(C)ccc1C(=O)N1CC2CN(c3nc(C)cc(C)n3)CC2C1 (centres unmarked) [Example 276]
Response: n

Request: Quick check: does O=C(c1cccc2c1OCCO2)N1CC2CN(c3nccc(-c4ccccc4)n3)CC2C1 (centres unmarked) [Example 21] have pKi greater than or equal to 7?
Response: n

Request: Check if pKi >= 7 (inclusive). Item: COc1cc(N2CC3CN(C(=O)c4ccccc4-n4nccn4)CC3C2)nc(N(C)C)n1 (centres unmarked) [Example 5]
Response: y

Request: For this compound, is measured pKi 7 or higher? Cc1cc(C)nc(N2CC3CN(C(=O)c4ccccc4-n4ccnn4)CC3C2)n1 (centres unmarked) [Example 205]
Response: n

Request: Kindly determine if pKi recorded for COc1ccnc(N2CC3CN(C(=O)c4ccccc4-c4cccc(F)c4)CC3C2)n1 (centres unmarked) [Example 51] is above or exactly 7.
Response: n

Request: Evaluate Cc1ccc(-n2nccn2)c(C(=O)N2CC3CN(c4nccc(-c5ccccc5)n4)CC3C2)c1 (centres unmarked) [Example 127] : pKi at minimum 7?
Response: y

###

measured-on: human orexin-2 receptor (Homo sapiens (Human), UniProt O43614)
experiment-notes: Human orexin 2 receptor radioligand binding ([3H]-EMPA competition)
experimental-parameters: HEK293 cells stably expressing human orexin-2 receptor; [3H]-EMPA 5 nM final; apparent Ki=IC50/(1+C/Kd), Kd=2 nM; read-out: OR 2 Ki
pKi: −log10 of the molar value.
Decision: pKi compared against 7; not below it gives 1, below it gives -1.

Cc1cc(C)nc(N2CC3CN(C(=O)c4cccc(F)c4-c4ncccn4)CC3C2)n1 (centres unmarked) | 1

Request: Decide: is the reported value of pKi for Cc1cc(C)nc(N2CC3CN(C(=O)c4ccc5ccccc5c4Br)CC3C2)n1 (centres unmarked) equal to or greater than 7?
Response: -1

Request: Please indicate if the recorded pKi for Cc1noc(-c2ccccc2C(=O)N2CC3CN(c4nc(C)c5c(n4)CCC5)CC3C2)n1 (centres unmarked) meets or exceeds 7.
Response: 1

Request: Check if pKi >= 7 (inclusive). Item: COc1ccc(C(=O)N2CC3CN(c4cccc(C)n4)CC3C2)c(OC)c1 (centres unmarked)
Response: -1

Request: Determine whether measured pKi meets or exceeds 7 for Cc1cc(C)nc(N2CC3CN(C(=O)c4ccccc4-c4ncc[nH]4)CC3C2)n1 (centres unmarked)
Response: -1

Request: I'd appreciate it if you could say whether Cc1cc(N2CC3CN(C(=O)c4ccccc4-n4nccn4)CC3C2)nc(C(F)(F)F)n1 (centres unmarked) has pKi at least equal to 7.
Response: 1

Request: In plain terms: is recorded pKi at least 7 for Cc1cc(C)nc(N2CC3CN(C(=O)c4cccnc4Br)CC3C2)n1 (centres unmarked) ?
Response: -1

###

measured-on: human orexin-2 receptor (Homo sapiens (Human))
experiment-notes: Human orexin 2 receptor radioligand binding ([3H]-EMPA competition)
experimental-parameters: HEK293 cells stably expressing human orexin-2 receptor; [3H]-EMPA 5 nM final; apparent Ki=IC50/(1+C/Kd), Kd=2 nM; read-out: OR 2 Ki
Parameter: pKi. Scope: all listed entries.
Conceptually, pKi converts a concentration in mol/L into minus its log10.

Solved entries:
COc1cccc(OC)c1C(=O)N1CC2CN(c3nc(C)cc(C)n3)CC2C1 (centres unmarked) [Example 351] | 5.92
Cc1ccoc1C(=O)N1CC2CN(c3ccc(C(F)(F)F)cn3)CC2C1 (centres unmarked) [Example 353] | 5.00
Cc1cc(C)nc(N2CC3CN(C(=O)c4ccc(F)cc4-c4ncccc4F)CC3C2)n1 (centres unmarked) [Example 346] | 7.60

Request: Would you kindly share the measured pKi for CCc1ccccc1C(=O)N1CC2CN(c3cnc4ccccc4n3)CC2C1 (centres unmarked) [Example 35] ?
Response: 6.14

Request: Record request: pKi value, item Cc1nc(N2CC3CN(C(=O)c4cccc(F)c4-c4ncccn4)CC3C2)nc(C)c1C (centres unmarked) [Example 239]
Response: 8.15

Request: Using the record for Cc1cc(C)nc(N2CC3CN(C(=O)c4cc(Cl)ccc4C)CC3C2)n1 (centres unmarked) [Example 223] , report its pKi.
Response: 6.47

Request: For Cc1cc(C)nc(N2CC3CN(C(=O)c4ccc(F)cc4-c4ccccn4)CC3C2)n1 (centres unmarked) [Example 366] , what is its reported pKi?
Response: 7.64

Request: Sample Cc1ccnc(N2CC3CN(C(=O)c4c(C)ccc5ccccc45)CC3C2)n1 (centres unmarked) [Example 50] — what was its pKi?
Response: 6.67

Request: Data request, read-out pKi, for Cc1cc(C)nc(N2CC3CN(C(=O)c4ccccc4Br)CC3C2)n1 (centres unmarked) [Example 82]
Response: 6.42

Request: Given Cc1cc(C)nc(N2CC3CN(C(=O)c4cccc5c4-c4ccccc4C5)CC3C2)n1 (centres unmarked) [Example 326] , state its recorded pKi.
Response: 8.10

Request: For the compound Cc1ccc(-c2ncccn2)c(C(=O)N2CC3CN(c4nc(C)cc(C)n4)CC3C2)c1 (centres unmarked) [Example 102] , what pKi is on record?
Response: 7.77

Request: Given the entry Cc1cc(C)nc(N2CC3CN(C(=O)c4ccccc4-c4nnc[nH]4)CC3C2)n1 (centres unmarked) [Example 14] , report its measured pKi.
Response: 7.55

Request: Quick one: pKi for Cc1cc(C)c(C(=O)N2CC3CN(c4nc(C)cc(C)n4)CC3C2)c(C)c1 (centres unmarked) [Example 270] ?
Response: 5.99

Request: What value of pKi has been reported for the following compound? O=C(c1cccc(F)c1Br)N1CC2CN(c3ncc4cc(F)ccc4n3)CC2C1 (centres unmarked) [Example 247]
Response: 6.19

Request: Which pKi value is on record for COc1ccc(C(=O)N2CC3CN(c4cnc5cc(F)c(F)cc5n4)CC3C2)c(-n2nccn2)c1 (centres unmarked) [Example 389] ?
Response: 7.66

Request: Can you share its pKi? I mean this compound: Cc1cc(N2CC3CN(C(=O)c4ccccc4-n4nccn4)CC3C2)nc(N(C)C)n1 (centres unmarked) [Example 120]
Response: 7.15

Request: What value of pKi has been reported for the following compound? Cc1cc(N2CC3CN(C(=O)c4c(F)cccc4-n4nccn4)CC3C2)nc(C(F)(F)F)n1 (centres unmarked) [Example 98]
Response: 7.55
